This collection of values is drawn from patent US20190367631A1.

Target: T1, human MSR1 extracellular domain expressed with a N-terminal nonahistidine tag (His9-hMSR1); R&D Systems, Cat … (human, UniProt P21757 77-451)
T1 construct: extracellular domain; also called His-hMSR1; 9xHis-hMSR1; not shown: N-terminal nonahistidine tag
T1 sequence (looked up): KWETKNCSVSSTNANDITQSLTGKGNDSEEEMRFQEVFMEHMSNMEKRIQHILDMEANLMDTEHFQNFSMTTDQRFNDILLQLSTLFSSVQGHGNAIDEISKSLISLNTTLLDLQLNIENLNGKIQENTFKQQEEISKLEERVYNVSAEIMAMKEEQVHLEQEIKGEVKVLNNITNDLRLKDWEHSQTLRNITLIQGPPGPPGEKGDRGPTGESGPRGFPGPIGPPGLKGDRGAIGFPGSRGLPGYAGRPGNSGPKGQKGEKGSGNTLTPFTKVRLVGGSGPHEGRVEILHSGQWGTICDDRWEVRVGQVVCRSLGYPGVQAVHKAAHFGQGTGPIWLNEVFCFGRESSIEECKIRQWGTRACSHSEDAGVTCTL
Experiment: SPR Biacore, 37 C, antibody captured
Label Met when Kd is strictly below 0.5 nM; otherwise label Not met.

For orientation, consider the following solved cases.
binder | discreteLabel
H1H27732P-N297Q (antibody, V domains shown, Human IgG1 Fc with N297Q point mutation) VH: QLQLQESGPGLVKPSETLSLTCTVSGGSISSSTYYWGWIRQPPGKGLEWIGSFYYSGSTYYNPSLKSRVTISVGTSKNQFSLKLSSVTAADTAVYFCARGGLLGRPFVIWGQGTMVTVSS VL: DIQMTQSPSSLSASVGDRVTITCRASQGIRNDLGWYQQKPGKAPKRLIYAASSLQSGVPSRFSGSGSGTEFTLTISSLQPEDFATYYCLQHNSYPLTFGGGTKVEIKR | Met
H1H27739P-N297Q (antibody, V domains shown, Human IgG1 Fc with N297Q point mutation) VH: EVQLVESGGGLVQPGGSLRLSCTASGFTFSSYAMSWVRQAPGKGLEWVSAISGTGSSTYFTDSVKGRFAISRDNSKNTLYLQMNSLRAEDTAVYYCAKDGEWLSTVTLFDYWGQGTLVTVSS VL: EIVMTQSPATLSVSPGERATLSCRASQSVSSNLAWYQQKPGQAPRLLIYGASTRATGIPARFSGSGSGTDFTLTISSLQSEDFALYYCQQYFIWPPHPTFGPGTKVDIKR | Not met
H1H27747P-N297Q (antibody, V domains shown, Human IgG1 Fc with N297Q point mutation) VH: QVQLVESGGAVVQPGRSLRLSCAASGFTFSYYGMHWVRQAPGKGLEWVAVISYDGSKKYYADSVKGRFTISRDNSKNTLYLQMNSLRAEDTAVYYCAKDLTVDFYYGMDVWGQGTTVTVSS VL: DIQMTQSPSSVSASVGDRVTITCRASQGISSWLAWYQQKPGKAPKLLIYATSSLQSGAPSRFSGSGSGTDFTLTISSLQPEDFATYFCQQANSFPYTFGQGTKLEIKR | Not met
H1H27731P-N297Q (antibody, V domains shown, Human IgG1 Fc with N297Q point mutation) VH: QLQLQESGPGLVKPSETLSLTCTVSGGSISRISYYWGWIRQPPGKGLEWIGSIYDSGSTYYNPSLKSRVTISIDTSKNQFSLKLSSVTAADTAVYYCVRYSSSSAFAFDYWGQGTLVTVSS VL: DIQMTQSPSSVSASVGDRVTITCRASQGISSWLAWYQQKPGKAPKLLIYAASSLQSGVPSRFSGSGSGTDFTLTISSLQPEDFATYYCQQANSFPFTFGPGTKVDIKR | Met

**Q:** # strict comparison: is reported Kd < 0.5 nM? input = H1H27734P-N297Q (antibody, V domains shown, Human IgG1 Fc with N297Q point mutation) VH: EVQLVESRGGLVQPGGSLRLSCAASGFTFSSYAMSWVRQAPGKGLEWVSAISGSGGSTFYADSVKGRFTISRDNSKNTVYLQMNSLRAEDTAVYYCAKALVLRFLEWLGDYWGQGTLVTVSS VL: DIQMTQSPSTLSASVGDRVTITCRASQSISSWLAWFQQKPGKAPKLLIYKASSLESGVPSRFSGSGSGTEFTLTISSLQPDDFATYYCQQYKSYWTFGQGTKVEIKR
**A:** Not met

**Q:** # strict comparison: is reported Kd < 0.5 nM? input = H1H27729P-N297Q (antibody, V domains shown, Human IgG1 Fc with N297Q point mutation) VH: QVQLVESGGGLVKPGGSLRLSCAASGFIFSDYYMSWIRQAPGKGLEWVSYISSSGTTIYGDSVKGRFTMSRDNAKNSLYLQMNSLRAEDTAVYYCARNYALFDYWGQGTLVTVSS VL: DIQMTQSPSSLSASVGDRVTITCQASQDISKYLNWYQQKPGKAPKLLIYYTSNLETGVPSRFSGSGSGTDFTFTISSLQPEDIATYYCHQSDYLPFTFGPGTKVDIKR
**A:** Not met

**Q:** # strict comparison: is reported Kd < 0.5 nM? input = H1H27754P-N297Q (antibody, V domains shown, Human IgG1 Fc with N297Q point mutation) VH: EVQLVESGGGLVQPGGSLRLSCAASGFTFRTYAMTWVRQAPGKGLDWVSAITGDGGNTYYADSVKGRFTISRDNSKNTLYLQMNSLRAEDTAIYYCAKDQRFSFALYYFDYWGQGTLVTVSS VL: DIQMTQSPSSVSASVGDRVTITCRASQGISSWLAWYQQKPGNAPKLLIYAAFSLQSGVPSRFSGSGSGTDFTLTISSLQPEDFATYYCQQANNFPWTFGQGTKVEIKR
**A:** Met
